The entries below are paired with their reported pIC50.
Tested on: MCF7
PROCEDURE TEXT: Antiproliferative activity against human MCF7 cells after 5 days by WST-1 assay
Type: functional, cell-based
MEASUREMENT CONTEXT: MCF7, 120 h
pIC50 here is simply -log10 of the concentration when that concentration is written in mol/L.

// known answers, use as guide
COc1cc(O)c2c(c1O)C/C(C)=C\CC[C@@]1(C)O[C@@H]1C2=O; 4.82
COc1cc(O)c2c(c1O)[C@@H](O)/C(C)=C\CC[C@@]1(C)O[C@@H]1C2=O; 5.21
COc1cc(O)c2c(c1O)C[C@]1(C)O[C@@H]1CC[C@@]1(C)O[C@@H]1C2=O; 4.77
COc1cc(O)c2c(c1O)C/C(CO)=C\CC[C@@]1(C)O[C@@H]1C2=O; 4.37
COc1cc(O)c2c(c1O)C/C(C(OC(C)=O)OC(C)=O)=C\CC[C@@]1(C)O[C@@H]1C2=O; 5.25

Hello, I am looking for reported pIC50 with MCF7 for C=C1Cc2c(O)c(OC)cc(O)c2C(=O)[C@H]2O[C@]2(C)CC[C@H]1Br . Could you help?
4.96

# repeat for COc1cc(O)c2c(c1O)C[C@]1(C)O[C@@](C)(CC[C@H]1O)[C@H](O)C2=O
4.00

# repeat for COC1=CC(=O)C2=C(C[C@]3(C)O[C@@H]3CC[C@@]3(C)O[C@@H]3C2=O)C1=O
4.62

# repeat for COc1cc(O)c2c(c1O)C/C(CBr)=C\CC[C@@]1(C)O[C@@H]1C2=O
4.49

# repeat for COC1=CC(=O)C2=C(C/C(C)=C\CC[C@@]3(C)O[C@@H]3C2=O)C1=O
4.57
